experiment notes: Dissociation constant, pKa of the compound
Assay type: physicochemical
observed property: pKa

Recorded pKa (compound CC(C)(C)[C@@]1(O)CCN2C[C@@H]3c4ccccc4CCc4cccc(c43)[C@H]2C1 ): 5.9
